- Test name: small molecules captured by biotinylated probe aFSTL3 – biochemical, small-molecule microarray, fluorescence 635/667, stem cell growth factor project, primary screen (AID 1064);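 note: measures binding of the biotinylated anti-FSTL3 antibody to printed compounds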
- Condition details: higher = more signal
Measured quantity: composite z-score
Lab note: record just the number, no unit beside it.

Known composite z-score results, listed for orientation:
>  <Compound>
CCCCCCc1nc(-c2ccc(-c3ccc(Cl)c(Cl)c3)o2)c(C)c2c1[Si](C(C)C)(C(C)C)OC2

>  <composite z-score>
-0.495

$$$$
>  <Compound>
COCCOC(=O)N1C(=O)[C@@]2(c3cc(C#CC4(O)CCCCCC4)ccc31)[C@H](C(=O)Nc1nc3ccccc3s1)[C@H]1C(=O)O[C@H](c3ccccc3)[C@H](c3ccccc3)N1[C@@H]2c1ccc(OCCO)cc1

>  <composite z-score>
-0.568

$$$$
>  <Compound>
CN(C)CCCCNC(=O)[C@@H]1C[C@@H]2C(=O)N[C@@H](CCCCN)C(=O)N2[C@@H]1c1ccc(O)cc1

>  <composite z-score>
0.597

$$$$
>  <Compound>
CC(=O)Nc1cc(Br)ccc1C(=O)NCc1ccccc1

>  <composite z-score>
-0.16

$$$$
>  <Compound>
CO[C@H]1O[C@H](CO)[C@@H](OC(=O)Nc2ccccc2-c2ccccc2)[C@H](OC(=O)Nc2ccccc2-c2ccccc2)[C@@H]1OC(=O)Nc1ccccc1-c1ccccc1

>  <composite z-score>
0.0212

$$$$
>  <Compound>
CC(C)CCC[C@@H](C)[C@H]1CC[C@@]2(C)C3=C(CC[C@]12C)[C@@]1(C)CC[C@H](OC(=O)c2ccc(C(F)(F)F)nc2)C(C)(C)C1CC3 (some centres not stated)

>  <composite z-score>
-0.438

$$$$
>  <Compound>
O=C(O)C1N=C(c2ccc(OCCCO)cc2)N(c2ccccc2)O1 (configuration not stated)

>  <composite z-score>
0.158

$$$$
>  <Compound>
CC(C)NC(=O)[C@@H]1c2ccccc2C(=O)N(C(C)C)[C@H]1c1ccc(CO)cc1

>  <composite z-score>
0.473

$$$$

[in] Quick one: give measured composite z-score for NC(=O)[C@@]1(Cc2ccccc2)N=C(c2ccc(OCCCO)cc2)O[C@H]1c1ccccc1
[out] 0.264

[in] Provide one value: measured composite z-score of C=C(C)[C@@H]1CC=C(C(O)C2C=CC3C(=O)NC(=O)C3N2Nc2ccc(Cl)cc2Cl)CC1 (some centres not stated)
[out] 0.917

[in] Fill in reported composite z-score for this entry: OCCCC1=CC(C2CC2)N(Cc2cccc(OC(F)(F)F)c2)CC1 (configuration not stated)
[out] -0.367

[in] Output measured composite z-score for this item: CCOC(=O)C1=CCC(c2ccc(F)cc2)N(S(=O)(=O)c2ccc(C)cc2)C1 (configuration not stated)
[out] 0.605

[in] Recall and state the measured composite z-score for COC(=O)[C@@]1(Cc2ccc(F)cc2)[C@H]2c3cc(C(=O)N(C)C)n(Cc4cc(C)n(C)n4)c3C[C@H]2CN1C(=O)c1ccccc1 .
[out] 0.274

###

- Test name: Pseudomonas biofilm growth suppression – PAO1 strain, BacTiter-Glo luminescence, LB-PBS, primary screen (AID 1144)
- Condition details: P. aeruginosa PAO1 biofilm, 12 h, higher = more signal
Entries annotated with measured z-score
Answer field: number only, no words.

>  <Compound>
COCCOC(=O)N1C(=O)[C@@]2(c3cc(C#CC4(O)CCCCCC4)ccc31)[C@H](C(=O)Nc1nc3ccccc3s1)[C@H]1C(=O)O[C@H](c3ccccc3)[C@H](c3ccccc3)N1[C@@H]2c1ccc(OCCO)cc1

>  <Measured quantity>
z-score

>  <Obs value>
-1.1

$$$$
>  <Compound>
CCCCCN1CC=CC23O[C@@H]4C=CCOC(=O)[C@@H]4[C@H]2C(=O)N(C(C)CO)[C@@H]3C1=O (some centres undefined)

>  <Measured quantity>
z-score

>  <Obs value>
0.397

$$$$

[in] Quick one: give measured z-score for COc1ccc([Si](C)(C)[C@@H]2[C@@H](CC(=O)N3Cc4ccccc4C[C@H]3CO)O[C@]3(C(=O)N(Cc4cccc(N5CCC5=O)c4)c4ccccc43)[C@H]2C)cc1
[out] -0.0211

[in] Give recorded z-score. NC(=O)[C@@]1(Cc2ccccc2)N=C(c2ccc(OCCCO)cc2)O[C@H]1c1ccccc1
[out] -0.657
